# Assay Info: DPPH˙ radical scavenging by cyclic voltammetry
# Recorded Conditions: compound alone; 2nd Ired

| Structure Notation | Ired (μA) |
| --- | --- |
| Br.C/C(=N\Nc1nc(-c2ccc(O)c(C(N)=O)c2)cs1)c1ccc(O)cc1O | −5.26 μA |
| Br.C/C(=N\Nc1nc(-c2ccccc2)cs1)c1ccc(O)cc1O | −4.16 μA |
| Br.Oc1ccc(/C=N/Nc2nc(-c3ccccc3)cs2)c(O)c1 | −7.045 μA |

###

# Assay Info: Cyclic voltammetry of the compounds on graphite-based SPE
# Format: physicochemical
# Recorded Conditions: 2nd oxidation peak; CV, 0.1 M HClO4, graphite-based SPE
Decide using Eox (V) alone. Strictly below 0.4 V: YES. Equal to or above 0.4 V: NO.

| Structure Notation | Assigned Class |
| --- | --- |
| Br.C/C(=N\Nc1nc(-c2ccc(O)c(C(N)=O)c2)cs1)c1ccc(O)cc1O | YES |
| C/C(=N\Nc1nc(-c2ccc(O)c(O)c2)cs1)c1ccc(O)cc1O.Cl | YES |
| Cl.Oc1ccc(/C=N/Nc2nc(-c3ccc(O)c(O)c3)cs2)c(O)c1 | NO |
| Br.Oc1ccc(/C=N/Nc2nc(-c3ccccc3)cs2)c(O)c1 | NO |
| Br.C/C(=N\Nc1nc(-c2ccccc2)cs1)c1ccc(O)cc1O | NO |
| Cc1csc(N/N=C/c2ccc(O)cc2O)n1.Cl | NO |
| C/C(=N\Nc1nc(C)cs1)c1ccc(O)cc1O | YES |
